tested system: 5-hydroxytryptamine receptor 2C (Homo sapiens)
Sequence (P28335 whole entry): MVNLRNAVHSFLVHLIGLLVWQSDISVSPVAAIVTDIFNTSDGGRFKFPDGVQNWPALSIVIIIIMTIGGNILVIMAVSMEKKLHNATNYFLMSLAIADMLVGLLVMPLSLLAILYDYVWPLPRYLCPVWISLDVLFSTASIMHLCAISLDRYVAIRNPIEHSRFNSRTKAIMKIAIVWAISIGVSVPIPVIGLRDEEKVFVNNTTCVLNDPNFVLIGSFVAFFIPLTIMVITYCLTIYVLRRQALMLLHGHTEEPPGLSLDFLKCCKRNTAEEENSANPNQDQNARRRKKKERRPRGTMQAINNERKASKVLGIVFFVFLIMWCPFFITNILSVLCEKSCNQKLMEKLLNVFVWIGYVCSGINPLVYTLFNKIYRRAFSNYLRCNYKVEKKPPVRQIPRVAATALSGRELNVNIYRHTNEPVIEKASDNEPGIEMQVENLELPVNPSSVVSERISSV
Structures can show the parent of a compound that is named as a salt.
Quick reference: log10 Ki of the listed items.
Remember, log10 of Ki, in nM.

Consider the reported log10 Ki for these compounds:
Cn1cc(CCN)c2cc(O)ccc21 [5-HT,omega-N-Me]    0.43
CN1CC[C@@H]2CN3CCc4cccc(c43)[C@@H]2C1 [SDZ SER 082 FUMARATE]    0.88
Clc1cncc(N2CCNCC2)n1 [L-630,571]    1.99
CC[C@@H](CO)NC(=O)[C@@H]1C=C2c3cccc4c3c(cn4C)C[C@H]2N(C)C1    0.65

The record that follows has no log10 Ki shown yet.
Which measured log10 Ki value corresponds to c1ccc2nc(N3CCNCC3)ccc2c1 [2-Piperazin-1-yl-quinoline (Quipazine)] ?
1.73

====

// values below are reported pKi
tested system: UniProt:P41595
Where a name gives a salt, the structure may show the parent alone.
Expect pKi as a plain number equal to -log10 of the molar concentration.

Below: 3 compounds and their reported pKi.
Cn1cc(CCN)c2cc(O)ccc21 [5-HT,omega-N-Me]    8.16
c1ccc2nc(N3CCNCC3)ccc2c1 [2-Piperazin-1-yl-quinoline (Quipazine)]    7.07
Cc1cc2c(cc1Cl)N(C(=O)Nc1ccc(Oc3cccnc3C)nc1)CC2 [CAS_181632-25-7]    6.84

Turning to the following compound.
Need pKi of CN1CC[C@@H]2CN3CCc4cccc(c43)[C@@H]2C1 [SDZ SER 082 FUMARATE] , thanks.
6.69

====

Below are Ki values recorded for 5-hydroxytryptamine receptor 2B (Homo sapiens, UniProt P41595).
Provide the measurement as a number trailed by its unit.

C[C@H](N)Cc1cccc(C(F)(F)F)c1 [Norfenfluramine (+)]    100 nM

For the compound shown here, C[C@H](N)CN1CCc2ccc(Br)cc21 , give the reported Ki.
30.2 nM

Next: CN1CCN(c2nc3cc(C(F)(F)F)ccc3n3cccc23)CC1
871 nM

====

In what follows, each item is paired with its pKi for 5-hydroxytryptamine receptor 2C (Homo sapiens).
// field semantics: pKi = negative decimal log of concentration (mol/L)

Example cases with answers are listed next.
CSc1cc2c(cc1C(F)(F)F)N(C(=O)Nc1cccnc1)CC2    8.66
FC(F)(F)c1ccc(N2CCNCC2)nc1Cl    7.83
NCCc1c[nH]c2ccccc12    5.63

Would you mind telling me what pKi value was observed for O=C(CCCN1CCC2(CC1)C(=O)NCN2c1ccccc1)c1ccc(F)cc1 ?
6.22

Repeat for the following compound: COc1cc(OC)c(C(=O)CCCCN2CCC3(CC2)NC(=O)NC3=O)cc1NS(=O)(=O)c1ccc(C(F)(F)F)cc1
8.30

====

tested system: 5-hydroxytryptamine receptor 2B (Homo sapiens, UniProt P41595)
Sequence (P41595 whole entry): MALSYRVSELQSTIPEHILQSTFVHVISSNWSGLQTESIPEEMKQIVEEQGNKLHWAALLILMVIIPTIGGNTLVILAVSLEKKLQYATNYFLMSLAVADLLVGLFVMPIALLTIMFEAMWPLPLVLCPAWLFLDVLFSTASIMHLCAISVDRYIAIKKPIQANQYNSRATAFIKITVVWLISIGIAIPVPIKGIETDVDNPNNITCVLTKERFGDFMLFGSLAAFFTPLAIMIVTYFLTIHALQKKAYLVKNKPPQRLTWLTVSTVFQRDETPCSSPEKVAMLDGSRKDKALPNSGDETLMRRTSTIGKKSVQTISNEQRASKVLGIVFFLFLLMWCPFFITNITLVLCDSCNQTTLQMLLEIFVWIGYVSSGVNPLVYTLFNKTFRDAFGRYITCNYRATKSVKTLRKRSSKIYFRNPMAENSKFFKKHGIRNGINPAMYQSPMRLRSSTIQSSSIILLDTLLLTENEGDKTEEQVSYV
pKi: −log10 of the molar value.
Everything with pKi lower than 7 is criterion not met; everything else, including exactly 7, is criterion met.

CC(C)CC(N)C1(c2ccc(Cl)cc2)CCC1 (configuration not stated) [NSC_134771]    criterion not met

Is pKi for NCCc1c[nH]c2ccc(C(N)=O)cc12 [[3H]-5-carboxamidotryptamine] at or above 7?
criterion not met

====

Assay read-out Ki; system under study: 5-hydroxytryptamine receptor 2B (Homo sapiens, UniProt P41595).
Quick reminder: number only, in µM, skip the unit.

Solved entries (count: 5):
COc1cc(CC(C)N)c(OC)cc1Br (stereo not given)    0.0437
Clc1cncc(N2CCNCC2)n1 [L-630,571]    0.617
CN1CC(NS(=O)(=O)N(C)C)CC2c3cccc4c3c(cn4C)CC21 (stereo not given) [CAS_64795-35-3]    0.00347
CN1CC(C(=O)NC2(C)OC3(O)C4CCCN4C(=O)C(Cc4ccccc4)N3C2=O)C=C2c3cccc4[nH]cc(c34)CC21 (stereo not given) [CAS_113-15-5]    0.00129
CSc1cc2c(cc1C(F)(F)F)N(C(=O)Nc1cccnc1)CC2    0.00245

Field request: Ki | item: FC(F)(F)c1cccc(N2CCNCC2)c1 [TFMPP]
0.0589

Could you do the same for COc1cc(OC)c(C(=O)CCCCN2CCC3(CC2)NC(=O)NC3=O)cc1NS(=O)(=O)c1ccc(C(F)(F)F)cc1 , please?
2.88

Also CCC(CO)NC(=O)C1C=C2c3cccc4[nH]cc(c34)CC2N(C)C1 (stereo not given) [NSC_8226] ?
0.00046
